study target: human Siglec-7 on primary human monocyte-derived dendritic cells (human, UniProt Q9Y286 19-467)
Sequence (Q9Y286 19-467): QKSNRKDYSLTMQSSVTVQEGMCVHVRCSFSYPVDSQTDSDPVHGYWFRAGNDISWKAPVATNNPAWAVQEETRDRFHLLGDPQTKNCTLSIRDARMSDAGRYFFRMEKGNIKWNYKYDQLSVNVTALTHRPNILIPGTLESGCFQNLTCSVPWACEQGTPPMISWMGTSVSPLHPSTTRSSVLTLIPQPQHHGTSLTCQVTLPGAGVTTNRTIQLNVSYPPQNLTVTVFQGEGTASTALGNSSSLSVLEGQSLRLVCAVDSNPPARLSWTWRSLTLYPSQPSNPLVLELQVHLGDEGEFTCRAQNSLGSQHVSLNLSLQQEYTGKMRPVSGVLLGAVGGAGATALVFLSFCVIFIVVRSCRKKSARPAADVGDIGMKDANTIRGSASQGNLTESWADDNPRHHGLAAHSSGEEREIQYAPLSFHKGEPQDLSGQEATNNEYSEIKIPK
experiment description: cell-based or functional assay
recorded endpoint: Fold increase in potency compared to Chimeric Ab

[[record]]
binder = "S7AB-H8.45 (antibody, V domains shown) VH: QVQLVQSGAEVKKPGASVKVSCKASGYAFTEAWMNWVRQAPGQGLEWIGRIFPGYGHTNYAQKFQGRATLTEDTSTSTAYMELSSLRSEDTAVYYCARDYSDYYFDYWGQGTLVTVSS VL: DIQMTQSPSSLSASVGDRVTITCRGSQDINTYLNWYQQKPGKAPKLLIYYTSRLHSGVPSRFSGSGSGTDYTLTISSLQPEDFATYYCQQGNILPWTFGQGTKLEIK"
value_reported = "10.4 fold"

[[record]]
binder = "S7AB-H8.34.1 (antibody, V domains shown) VH: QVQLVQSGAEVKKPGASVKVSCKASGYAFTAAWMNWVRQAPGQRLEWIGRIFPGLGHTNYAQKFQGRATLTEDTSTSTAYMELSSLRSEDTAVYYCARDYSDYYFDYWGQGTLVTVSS VL: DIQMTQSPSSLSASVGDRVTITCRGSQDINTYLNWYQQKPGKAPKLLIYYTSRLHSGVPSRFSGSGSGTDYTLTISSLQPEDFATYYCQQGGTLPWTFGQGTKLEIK"
value_reported = "10.9 fold"

